- tested_on: human dopamine D2 receptor (Homo sapiens, UniProt P14416)
- Sequence (P14416 whole entry): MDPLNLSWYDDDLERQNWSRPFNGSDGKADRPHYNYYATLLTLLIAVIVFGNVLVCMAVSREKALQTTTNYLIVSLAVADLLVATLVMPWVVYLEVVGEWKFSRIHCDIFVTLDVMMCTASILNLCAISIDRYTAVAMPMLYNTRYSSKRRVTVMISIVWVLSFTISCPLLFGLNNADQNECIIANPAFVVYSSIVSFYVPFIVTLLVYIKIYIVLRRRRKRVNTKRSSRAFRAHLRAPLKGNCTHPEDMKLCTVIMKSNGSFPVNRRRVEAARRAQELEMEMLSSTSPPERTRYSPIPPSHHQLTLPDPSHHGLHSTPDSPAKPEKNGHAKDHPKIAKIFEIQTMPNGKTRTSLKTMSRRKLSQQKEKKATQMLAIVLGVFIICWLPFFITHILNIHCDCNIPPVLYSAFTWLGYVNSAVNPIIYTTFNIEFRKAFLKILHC
- protocol_description: human D2 and D3 receptor binding study (D2)
- assay_conditions: [125I]-iodosulpride, CHO membranes, 30 min at 30° C.; pKi = -log Ki
observable: pKi
// returns pKi (minus log10 of molar concentration), number only

Return reported pKi; argument: CCCN1CCO[C@@H]2c3cc(C(N)=O)ccc3CC[C@H]21 (single isomer, unassigned) [Example 3]
6.50

Numbers sourced from patent US6025356A.
